molecular target: HLA-A*02:01; assay: IEDB peptide-MHC binding, purified MHC/competitive/fluorescence; bounds were set here for any values at or beyond the usual limits of such assays; details: source organism: Zaire ebolavirus

seq.string: NETEYLFEV
IC50: 43.6 µM
//
seq.string: LTTLATIST
IC50: 7.63 µM
//
seq.string: LFQRTFSIP
IC50: ≥ 72.9 µM
//
seq.string: VTLDGQQFY
IC50: ≥ 226 µM
//
seq.string: GLAWIPYFG
IC50: 0.134 µM
//
seq.string: YKLDISEAT
IC50: ≥ 158 µM
//
seq.string: LLPAVSSGK
IC50: ≥ 73.6 µM
//
seq.string: SAIALGVAT
IC50: ≥ 242 µM
//
seq.string: RLEELLPAV
IC50: 1.85 µM
//
seq.string: ASDTPSATT
IC50: ≥ 614 µM
//
seq.string: AFWETKKNL
IC50: ≥ 242 µM

* * *

Some sequences, each annotated with its measured pKd.
target: HLA-A*33:01; assay: IEDB peptide-MHC binding, purified MHC/competitive/radioactivity; filed as Kd, often an IC50 or EC50 that approximates it; bounds were set here for any values at or beyond the usual limits of such assays; details: source organism: Vaccinia virus WR
pKd: −log10 of the molar value.

seq.string: FFVFIHMVR
system: HLA-A*33:01
relational.operator: =
pKd: 9.34
//
seq.string: NTILLSDKGK
system: HLA-A*33:01
relational.operator: =
pKd: 4.91
//
seq.string: LFKNVRLLK
system: HLA-A*33:01
relational.operator: =
pKd: 6.00
//
seq.string: SVFKGFSDK
system: HLA-A*33:01
relational.operator: =
pKd: 4.87
//
seq.string: AATIQTPTK
system: HLA-A*33:01
relational.operator: =
pKd: 5.90
//
seq.string: FIKPVSDLY
system: HLA-A*33:01
relational.operator: =
pKd: 6.30
//
seq.string: LMTLDDLAIK
system: HLA-A*33:01
relational.operator: ≤
pKd: 4.68
//
seq.string: AIITPVVFYR
system: HLA-A*33:01
relational.operator: =
pKd: 6.51
//
seq.string: FSAGAGVLDK
system: HLA-A*33:01
relational.operator: =
pKd: 6.46
//
seq.string: NIERQDYRR
system: HLA-A*33:01
relational.operator: =
pKd: 6.03
//
seq.string: ISIYSRPKIK
system: HLA-A*33:01
relational.operator: =
pKd: 5.05
//
seq.string: KMSTDNAVY
system: HLA-A*33:01
relational.operator: ≤
pKd: 4.11
//
seq.string: VLMHPDFCK
system: HLA-A*33:01
relational.operator: =
pKd: 5.86
//
seq.string: DISKLTNFK
system: HLA-A*33:01
relational.operator: =
pKd: 7.32
//
seq.string: KAFKNNLSR
system: HLA-A*33:01
relational.operator: =
pKd: 5.38
//
seq.string: YMVTDKTAY
system: HLA-A*33:01
relational.operator: ≤
pKd: 4.35
//
seq.string: DFSKSTSPTR
system: HLA-A*33:01
relational.operator: =
pKd: 5.98
//
seq.string: VLDIISSKQY
system: HLA-A*33:01
relational.operator: =
pKd: 5.84

* * *

biological target: HLA-A*02:01; assay: IEDB peptide-MHC binding, purified MHC/competitive/fluorescence; bounds were set here for any values at or beyond the usual limits of such assays; conditions: source organism: Sudan ebolavirus
endpoint: IC50

seq.string: ETFLQSPPI
endpoint: IC50
assay.result: ≥ 143 µM
//
seq.string: VTEIDQLVC
endpoint: IC50
assay.result: ≥ 322 µM
//
seq.string: IDNNTFVRL
endpoint: IC50
assay.result: ≥ 149 µM

* * *

target: HLA-B*08:01; assay: IEDB peptide-MHC binding, purified MHC/competitive/radioactivity; filed as Kd, often an IC50 or EC50 that approximates it; bounds were set here for any values at or beyond the usual limits of such assays; conditions: source organism: Vaccinia virus WR
Below: a set of entries, each annotated with reported log10 of Kd.
endpoint: log10 of Kd (log10 of the value in nM)

seq.string: AILSLNLRI
log10 of Kd: 3.11
--
seq.string: KKYNNDKSF
log10 of Kd: 3.58
--
seq.string: FRRLRKGSI
log10 of Kd: 0.48
--
seq.string: YLMLLFAAM
log10 of Kd: 2.14
--
seq.string: SLLRKFLYC
log10 of Kd: 2.85
--
seq.string: SLQQRLEDL
log10 of Kd: 2.20
--
seq.string: YLRTKPASA
log10 of Kd: 0.17
--
seq.string: SPMGKLTFF
log10 of Kd: 2.42

* * *

Known pKd of a selection of sequences
molecular target: HLA-A*33:01; assay: IEDB peptide-MHC binding, purified MHC/competitive/radioactivity; filed as Kd, often an IC50 or EC50 that approximates it; bounds were set here for any values at or beyond the usual limits of such assays; conditions: source organism: Vaccinia virus WR
pKd: −log10 of the molar value.

seq.string: PVDTEFINK
relational.operator: ≤
pKd: 4.38
--
seq.string: VSSLVKNVNK
relational.operator: ≤
pKd: 4.30
--
seq.string: GFCIPSRSK
relational.operator: ≤
pKd: 4.11
--
seq.string: IMLPESDLDK
relational.operator: ≤
pKd: 4.15
--
seq.string: KLCKNHAEK
relational.operator: ≤
pKd: 4.41
--
seq.string: NQNLIPSTVK
relational.operator: ≤
pKd: 4.15
--
seq.string: NTVVRDFENY
relational.operator: ≤
pKd: 4.66
--
seq.string: VVVKDDPDHY
relational.operator: ≤
pKd: 4.15
--
seq.string: YTIERIFNAK
relational.operator: =
pKd: 6.06
--
seq.string: IIVAGFSGK
relational.operator: =
pKd: 6.09
--
seq.string: YIPGTSVIR
relational.operator: =
pKd: 5.54
--
seq.string: SIKIKQDVR
relational.operator: =
pKd: 5.35
--
seq.string: KSLLLLNTR
relational.operator: =
pKd: 5.94
--
seq.string: ASTTENAAY
relational.operator: =
pKd: 5.41
--
seq.string: SSGFYFEIAR
relational.operator: =
pKd: 6.75
--
seq.string: NFSIIELPY
relational.operator: ≤
pKd: 4.46
--
seq.string: LIVTFRERY
relational.operator: =
pKd: 5.38
--
seq.string: GVSYEVFDDY
relational.operator: ≤
pKd: 4.15
--
seq.string: NIRLTDTEYR
relational.operator: =
pKd: 6.80
--
seq.string: NSSIISLFY
relational.operator: =
pKd: 5.15
--
seq.string: LIPVSEVLLK
relational.operator: ≤
pKd: 4.15
--
seq.string: RQQLEDIFMR
relational.operator: ≤
pKd: 4.23
--
seq.string: VFSFWLLCK
relational.operator: =
pKd: 5.38
--
seq.string: SVDIETAIR
relational.operator: =
pKd: 4.76
--
seq.string: KFLELKRGIY
relational.operator: ≤
pKd: 4.15
--
seq.string: IIKHIYEQY
relational.operator: ≤
pKd: 4.38
--
seq.string: KLFKKTDFK
relational.operator: =
pKd: 4.86
--
seq.string: AIITPVVFY
relational.operator: ≤
pKd: 4.34
--
seq.string: ITTLLNETAK
relational.operator: ≤
pKd: 4.68
--
seq.string: SILDRIDTR
relational.operator: =
pKd: 6.95
--
seq.string: PSLEYGANY
relational.operator: =
pKd: 5.10
--
seq.string: CIPSRSKMLK
relational.operator: =
pKd: 7.20
--
seq.string: ASLKNTISK
relational.operator: ≤
pKd: 4.11
--
seq.string: FMRDWNSKY
relational.operator: ≤
pKd: 4.18
--
seq.string: DLTALLSCIR
relational.operator: =
pKd: 7.11
--
seq.string: AVRAFLLRHY
relational.operator: ≤
pKd: 4.15
--
seq.string: QSYRQYRNY
relational.operator: =
pKd: 6.96
--
seq.string: AFVRFSTDK
relational.operator: ≤
pKd: 4.11
--
seq.string: EVGSIRCVK
relational.operator: =
pKd: 7.08
--
seq.string: AVNTPVSMTY
relational.operator: ≤
pKd: 4.15

* * *

Measured pKd, listed per entry.
biological target: HLA-A*02:06; assay: IEDB peptide-MHC binding, purified MHC/competitive/radioactivity; filed as Kd, often an IC50 or EC50 that approximates it; bounds were set here for any values at or beyond the usual limits of such assays; details: source organism: Vaccinia virus WR
pKd: −log10 of the molar value.
endpoint: pKd

seq.string: SLVITYCLVT
endpoint: pKd
relational.operator: =
assay.result: 6.08
--
seq.string: YALEPRKEI
endpoint: pKd
relational.operator: =
assay.result: 5.39
--
seq.string: IVSKCIVQSV
endpoint: pKd
relational.operator: =
assay.result: 6.26
--
seq.string: NTLISSDGA
endpoint: pKd
relational.operator: ≤
assay.result: 4.31
--
seq.string: KISVEKIKQT
endpoint: pKd
relational.operator: ≤
assay.result: 4.68
--
seq.string: TAGNKVDVDI
endpoint: pKd
relational.operator: ≤
assay.result: 4.42
--
seq.string: DTDIVNNFI
endpoint: pKd
relational.operator: =
assay.result: 4.80
--
seq.string: LLPLTSLVIT
endpoint: pKd
relational.operator: =
assay.result: 5.79
--
seq.string: DIMTSTRTI
endpoint: pKd
relational.operator: ≤
assay.result: 4.66
--
seq.string: KVDDTFYYV
endpoint: pKd
relational.operator: ≤
assay.result: 4.46
--
seq.string: LTGNNTITT
endpoint: pKd
relational.operator: =
assay.result: 5.06
--
seq.string: AFVRFSTDK
endpoint: pKd
relational.operator: ≤
assay.result: 4.11
--
seq.string: GLRQQLEDI
endpoint: pKd
relational.operator: =
assay.result: 5.37
--
seq.string: ALTDVEKRI
endpoint: pKd
relational.operator: =
assay.result: 4.84

Source: the Immune Epitope Database (IEDB)
